METHOD: Selectivity index, ratio of IC50 for cytotoxicity against human T98G cells to IC50 for antitrypanosomal activity against Trypanosoma brucei brucei
Assay type: toxicity, cell-based
RUN CONDITIONS: read-out: Ratio IC50
Listing of entries alongside the reported selectivity ratio.
MEASURE NAME: selectivity ratio

MOL SMILES: CC1=C\C=C\C[C@H](C)NC(=O)/C=C/C=C/C=C/[C@H](C)[C@@H](O)[C@H](O)[C@H](O)C[C@@H](O)\C=C\C=C\C(C)=C\1
ASSAY RESULT: 11
//
MOL SMILES: CC1=C\C=C\C[C@H](C)NC(=O)/C=C/C=C/C=C/[C@H](C)[C@@H](O)[C@H](O)[C@H](O)C[C@@H](O)/C=C\C=C\C(C)=C\1
ASSAY RESULT: 83

---

Catalogue of compounds with associated selectivity ratio
METHOD: Selectivity index, ratio of IC50 for cytotoxicity against mouse peritoneal macrophage cells to IC50 for antileishmanial activity against Leishmania donovani promastigotes
Format: toxicity, cell-based
RUN CONDITIONS: read-out: Ratio IC50

COMPOUND: Cn1c2c3cc(Br)ccc3nc-2cc2cc(Br)ccc21
selectivity ratio: 18
--
COMPOUND: C[n+]1c2ccccc2cc2[n-]c3ccccc3c21 [CRYPTOLEPINE]
selectivity ratio: 0.7

---

METHOD: Selectivity index, ratio of IC50 for cytotoxicity against mouse peritoneal macrophage cells to IC50 for antitrypanosomal activity against bloodstream form of Trypanosoma brucei
Type: toxicity, cell-based
RUN CONDITIONS: read-out: Ratio IC50

MOLECULE: C[n+]1c2ccccc2cc2[n-]c3ccccc3c21 [CRYPTOLEPINE]
selectivity ratio: 29.3

MOLECULE: Cn1c2c3cc(Br)ccc3nc-2cc2cc(Br)ccc21
selectivity ratio: 2080

---

Tested on: Trypanosoma brucei rhodesiense
METHOD: Antitrypanosomal activity against Trypanosoma brucei rhodesiense bloodstream form

MOLECULE: Cn1c2nc3ccccc3c-2cc2ccccc21 [NEOCRYPTOLEPINE]
UNIT ABBREVIATION: nM
EC50: 2200

---

Tested on: Trypanosoma brucei
METHOD: Antitrypanosomal activity against Trypanosoma brucei
Format: functional, organism-based

MOL SMILES: C/C=C/[C@]1(C)C[C@@](/C=C(\C)C[C@@H](CC)CC/C=C/CC)(CC)OO1
EC50: 5 µM

---

METHOD: Selectivity index, ratio of IC50 for cytotoxicity against rat L6 cells to IC50 for antileishmanial activity against amastigote form of Leishmania donovani
Assay type: toxicity, cell-based
RUN CONDITIONS: read-out: Ratio IC50

MOL SMILES: COc1cc(-c2oc3cc(O)cc(O)c3c(=O)c2O)ccc1O
selectivity ratio: 10.7
--
MOL SMILES: O=c1cc(-c2ccc(O)c(O)c2)oc2cc(O)cc(O)c12
selectivity ratio: 12
--
MOL SMILES: O=c1c(O)c(-c2ccccc2)oc2ccccc12
selectivity ratio: 21

---

Test system: Leishmania donovani
METHOD: Antileishmanial activity against Leishmania donovani promastigotes assessed as parasite growth inhibition
Type: functional, organism-based
MEASURE NAME: log10 EC50 (log10 of the value in µM)

COMPOUND: Cn1c2c3cc(Br)ccc3nc-2cc2cc(Br)ccc21
ASSAY SYSTEM: Leishmania donovani
MEASURE NAME: log10 EC50
ASSAY RESULT: -0.30
--
COMPOUND: NC[C@@H]1O[C@H](O[C@H]2[C@@H](O)[C@H](O[C@@H]3[C@@H](O)[C@H](N)C[C@H](N)[C@H]3O[C@H]3O[C@H](CO)[C@@H](O)[C@H](O)[C@H]3N)O[C@@H]2CO)[C@H](N)[C@@H](O)[C@@H]1O [PAROMOMYCIN]
ASSAY SYSTEM: Leishmania donovani
MEASURE NAME: log10 EC50
ASSAY RESULT: -2.30
--
COMPOUND: COc1cccc2oc3c(Cl)c(O)c([C@H]4CCC[C@@H](C)O4)c(O)c3c(=O)c12 [CHAETOXANTHONE C]
ASSAY SYSTEM: Leishmania donovani
MEASURE NAME: log10 EC50
ASSAY RESULT: 0.90
--
COMPOUND: CC1CS(=O)(=O)CCN1/N=C/c1ccc([N+](=O)[O-])o1 (stereo not given) [NIFURTIMOX]
ASSAY SYSTEM: Leishmania donovani
MEASURE NAME: log10 EC50
ASSAY RESULT: -1.62
--
COMPOUND: C[n+]1c2ccccc2cc2[n-]c3ccccc3c21 [CRYPTOLEPINE]
ASSAY SYSTEM: Leishmania donovani
MEASURE NAME: log10 EC50
ASSAY RESULT: 0.20

---

Tested on: Trypanosoma cruzi
METHOD: Antitrypanosomal activity against epimastigote form of Trypanosoma cruzi assessed as reduction in parasite growth
Format: functional, organism-based
MEASURE NAME: log10 EC50 (log10 of the value in µM)

COMPOUND: CCCCCCCCCCCCCCCCOP(=O)([O-])OCC[N+](C)(C)C [MILTEFOSINE]
log10 EC50: -0.04

COMPOUND: O=C(Cn1ccnc1[N+](=O)[O-])NCc1ccccc1 [BENZNIDAZOLE]
log10 EC50: 0.97

COMPOUND: CC(C)[C@@H](C)/C=C/[C@@H](C)[C@H]1CC[C@@H]2[C@]1(C)CC[C@H]1[C@]23C=C[C@]2(C[C@@H](O)CC[C@]12C)OO3 [ERGOSTEROL PEROXIDE]
log10 EC50: 1.23

COMPOUND: CCOC1C[C@H](CCCCOCc2ccccc2)O[C@H](Cn2cc([C@@H]3CCC[C@H](CCCCOCc4ccccc4)O3)nn2)C1 (stereo partly drawn)
log10 EC50: 1.10

COMPOUND: C=C1C(=O)O[C@@H]2[C@H]1CC[C@H](C)[C@@H]1CCC(=O)O[C@@]21C
log10 EC50: 0.36

COMPOUND: CC1CS(=O)(=O)CCN1/N=C/c1ccc([N+](=O)[O-])o1 (stereo not drawn) [NIFURTIMOX]
log10 EC50: 0.18

COMPOUND: C=C1C(=O)O[C@H]2C[C@@](C)(O)C3=CC[C@](C)(O)[C@@H]3C[C@H]12 [GUAIANOLIDE]
log10 EC50: 1.26

COMPOUND: C=C1C(=O)O[C@@H]2[C@H]1CC[C@H](C)[C@]1(CCC(=O)O1)[C@@]2(C)O [PSILOSTACHYIN A]
log10 EC50: 0.63

---

METHOD: Selectivity index, ratio of CC50 for cytotoxicity against rat L6 cells to IC50 for […] activity against amastigote form of Leishmania donovani
Type: toxicity, cell-based
RUN CONDITIONS: read-out: Ratio CC50/IC50

MOL SMILES: NC1=N[C@]2([C@H](O)N1)[C@@H](Cl)[C@H](CCl)[C@H]1CN3C(=O)c4cc(Br)c(Br)n4[C@@H]4NC(N)=N[C@@]43[C@@H]12
selectivity ratio: 4

---

METHOD: Selectivity index, ratio of IC50 for cytotoxicity against human MRC5 cells to IC50 for antitrypanosomal activity against bloodstream form of Trypanosoma brucei
Assay type: toxicity, cell-based
RUN CONDITIONS: read-out: Ratio IC50
MEASURE NAME: selectivity ratio

MOL SMILES: COc1c(O)cc2oc3cc(O)c(CC=C(C)C)c(O)c3c(=O)c2c1CC=C(C)C
MEASURE NAME: selectivity ratio
ASSAY RESULT: 0.95

---

METHOD: Selectivity index, ratio of IC50 for cytotoxicity against rat L6 cells to IC50 for antitrypanosomal activity against intracellular Trypanosoma cruzi amastigote
Type: toxicity, cell-based
RUN CONDITIONS: read-out: Ratio IC50
MEASURE NAME: selectivity ratio

MOLECULE: O=c1c(O)c(-c2ccccc2)oc2ccccc12 [FLAVONOL]
MEASURE NAME: selectivity ratio
ASSAY RESULT: 2

---

METHOD: Selectivity index, ratio of CC50 for cytotoxicity against rat L6 cells to IC50 for antitrypanosomal activity against bloodstream form of Trypanosoma brucei rhodesiense
Type: toxicity, cell-based
RUN CONDITIONS: read-out: Ratio CC50/IC50
selectivity ratio overview

MOL SMILES: Nc1nc([C@H]2[C@H](CNC(=O)c3cc(Br)c[nH]3)[C@@H](CNC(=O)c3cc(Br)c[nH]3)[C@@H]2c2c[nH]c(N)n2)c[nH]1
COMPARISON SIGN: >
selectivity ratio: 10

MOL SMILES: NC1=N[C@]2([C@H](O)N1)[C@@H](Cl)[C@H](CCl)[C@H]1CN3C(=O)c4cc(Br)c(Br)n4[C@@H]4NC(N)=N[C@@]43[C@@H]12
COMPARISON SIGN: =
selectivity ratio: 10

---

METHOD: Selectivity index, ratio of IC50 for cytotoxicity against rat L6 cells to IC50 for antitrypanosomal activity against bloodstream form of Trypanosoma brucei rhodesiense
Format: toxicity, cell-based
RUN CONDITIONS: read-out: Ratio IC50

MOLECULE: COc1ccc(-c2oc3cc(OC)c(OC)c(O)c3c(=O)c2OC)cc1OC [ARTEMETIN]
selectivity ratio: 9.8
--
MOLECULE: O=c1c(O)c(-c2ccccc2)oc2ccccc12 [FLAVONOL]
selectivity ratio: 29
--
MOLECULE: CC/C=C(C)/C=C/CCC[C@]1(OC)C[C@H](C)[C@H](CC(=O)O)OO1
selectivity ratio: 3.8
--
MOLECULE: O=C(O)c1ccc2c(n1)C(=O)C1=C(C2=O)S(=O)(=O)CCN1 [ACIDIATHIAZONE A]
selectivity ratio: 50
